STUDY_TARGET: T1, P991_AMBCA (Amblyomma cajennense, UniProt A0A023FFD0 29-136);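 further: biolayer interferometry on an Octet system: chemokines at several doses tested against tick chemokine-binding proteins, association, equilibrium and dissociation curves fitted to derive Kd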
T1 sequence: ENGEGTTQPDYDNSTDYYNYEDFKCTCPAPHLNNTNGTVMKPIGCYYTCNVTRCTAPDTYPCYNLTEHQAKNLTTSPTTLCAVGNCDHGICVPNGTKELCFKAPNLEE
ASSAY_INFO: BLI
pKd: −log10 of the molar value.
Below, each entry is listed alongside its reported pKd.
EXPERIMENTAL_ENDPOINT: pKd

[[record]]
binder = "CCL4L1_HUMAN (ligand) APMGSDPPTACCFSYTARKLPRNFVVDYYETSSLCSQPAVVFQTKRGKQVCADPSESWVQEYVYDLELN"
readout_number = 9.08

[[record]]
binder = "CCL4_HUMAN (ligand) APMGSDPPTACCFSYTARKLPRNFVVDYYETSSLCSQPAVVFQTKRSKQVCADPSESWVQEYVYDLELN"
readout_number = 8.24

[[record]]
binder = "CCL5_HUMAN (ligand) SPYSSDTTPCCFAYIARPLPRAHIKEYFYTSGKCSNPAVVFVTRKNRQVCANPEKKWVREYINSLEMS"
readout_number = 8.83

[[record]]
binder = "CCL3L1_HUMAN (ligand) APLAADTPTACCFSYTSRQIPQNFIADYFETSSQCSKPSVIFLTKRGRQVCADPSEEWVQKYVSDLELSA"
readout_number = 8.85

[[record]]
binder = "CCL14_HUMAN (ligand) TESSSRGPYHPSECCFTYTTYKIPRQRIMDYYETNSQCSKPGIVFITKRGHSVCTNPSDKWVQDYIKDMKEN"
readout_number = 9.37

[[record]]
binder = "CCL15_HUMAN (ligand) QFTNDAETELMMSKLPLENPVVLNSFHFAADCCTSYISQSIPCSLMKSYFETSSECSKPGVIFLTKKGRQVCAKPSGPGVQDCMKKLKPYSI"
readout_number = 6.80

[[record]]
binder = "CCL18_HUMAN (ligand) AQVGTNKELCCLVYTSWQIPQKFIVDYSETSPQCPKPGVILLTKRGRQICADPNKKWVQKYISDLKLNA"
readout_number = 9.68

[[record]]
binder = "CCL19_HUMAN (ligand) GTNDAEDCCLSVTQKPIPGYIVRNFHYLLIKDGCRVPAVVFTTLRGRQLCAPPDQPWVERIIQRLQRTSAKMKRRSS"
readout_number = 7.84

[[record]]
binder = "CCL3_HUMAN (ligand) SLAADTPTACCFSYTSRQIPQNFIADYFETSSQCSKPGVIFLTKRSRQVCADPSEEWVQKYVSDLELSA"
readout_number = 8.97

[[record]]
binder = "CCL8_HUMAN (ligand, UniProt P80075 24-99, looked up) QPDSVSIPITCCFNVINRKIPIQRLESYTRITNIQCPKEAVIFKTKRGKEVCADPKERWVRDSMKHLDQIFQNLKP"
readout_number = 8.06

[[record]]
binder = "CCL17_HUMAN (ligand) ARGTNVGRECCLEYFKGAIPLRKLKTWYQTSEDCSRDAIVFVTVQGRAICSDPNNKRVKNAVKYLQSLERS"
readout_number = 8.12

[[record]]
binder = "CCL16_HUMAN (ligand) QPKVPEWVNTPSTCCLKYYEKVLPRRLVVGYRKALNCHLPAIIFVTKRNREVCTNPNDDWVQEYIKDPNLPLLPTRNLSTVKIITAKNGQPQLLNSQ"
readout_number = 8.89

